- System: RXRa DBDmut IVT, anti-RXR (DBD mutation: RXRa K156A/R161A, NR concentration 90 nM)
- PROCEDURE_SUMMARY: PBM binding z-score (relative to random genomic background probes); higher = stronger binding; sequences stand for … in GC…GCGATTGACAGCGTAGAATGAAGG
ASSAY_ENDPOINT: PBM binding z-score
Numbers only.

Previously resolved entries follow.
>  <SEQUENCE_CODE>
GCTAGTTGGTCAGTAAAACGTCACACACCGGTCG

>  <PBM binding z-score>
-0.207

$$$$
>  <SEQUENCE_CODE>
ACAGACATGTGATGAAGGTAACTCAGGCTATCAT

>  <PBM binding z-score>
0.00385

$$$$
>  <SEQUENCE_CODE>
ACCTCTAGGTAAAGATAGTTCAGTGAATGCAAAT

>  <PBM binding z-score>
0.0276

$$$$

Provide PBM binding z-score values for the following items, in order.
1. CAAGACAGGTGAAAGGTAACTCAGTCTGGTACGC
2. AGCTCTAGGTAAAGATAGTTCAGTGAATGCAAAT
3. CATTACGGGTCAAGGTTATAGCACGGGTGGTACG
4. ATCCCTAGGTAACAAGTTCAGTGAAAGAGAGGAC
5. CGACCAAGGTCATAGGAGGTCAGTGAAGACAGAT
6. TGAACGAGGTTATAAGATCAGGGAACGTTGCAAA
7. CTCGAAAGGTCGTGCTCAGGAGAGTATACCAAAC

[-0.244, -0.0733, 1.61, 0.955, 3.53, 0.444, 1.88]

---

- Test system: RXRa DBDmut IVT, anti-RXR (DBD mutation: RXRa K156A/R161A, NR concentration 90 nM)
- PROCEDURE_SUMMARY: PBM binding z-score (relative to random genomic background probes); higher = stronger binding; sequences stand for … in GC…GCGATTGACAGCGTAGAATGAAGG
# label = 1.0 if PBM binding z-score >= 0.5 else 0.0

The following sequences have reported results that may help.
>  <SEQUENCE_CODE>
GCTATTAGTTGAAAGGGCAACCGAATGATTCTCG

>  <GROUP>
1.0

$$$$
>  <SEQUENCE_CODE>
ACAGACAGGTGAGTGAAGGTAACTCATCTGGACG

>  <GROUP>
0.0

$$$$
>  <SEQUENCE_CODE>
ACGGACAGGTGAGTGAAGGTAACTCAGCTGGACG

>  <GROUP>
0.0

$$$$
>  <SEQUENCE_CODE>
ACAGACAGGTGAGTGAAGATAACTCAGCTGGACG

>  <GROUP>
0.0

$$$$
>  <SEQUENCE_CODE>
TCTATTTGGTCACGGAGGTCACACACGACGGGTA

>  <GROUP>
1.0

$$$$
>  <SEQUENCE_CODE>
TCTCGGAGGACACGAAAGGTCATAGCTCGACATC

>  <GROUP>
1.0

$$$$

Has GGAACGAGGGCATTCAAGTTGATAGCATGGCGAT a recorded PBM binding z-score greater than or equal to 0.5? 1.0

Has CGAACGAGGGCATGAATTGATAGCAAATGCCGAT a recorded PBM binding z-score greater than or equal to 0.5? 1.0

Has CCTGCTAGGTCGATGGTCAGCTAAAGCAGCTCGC a recorded PBM binding z-score greater than or equal to 0.5? 0.0

Has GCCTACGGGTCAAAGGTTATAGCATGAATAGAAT a recorded PBM binding z-score greater than or equal to 0.5? 1.0

Has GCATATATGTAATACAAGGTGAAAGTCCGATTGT a recorded PBM binding z-score greater than or equal to 0.5? 1.0

Has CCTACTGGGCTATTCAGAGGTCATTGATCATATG a recorded PBM binding z-score greater than or equal to 0.5? 1.0

Has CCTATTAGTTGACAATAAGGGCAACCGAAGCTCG a recorded PBM binding z-score greater than or equal to 0.5? 1.0

Has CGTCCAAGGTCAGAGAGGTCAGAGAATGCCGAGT a recorded PBM binding z-score greater than or equal to 0.5? 1.0

Has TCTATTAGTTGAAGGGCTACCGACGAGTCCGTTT a recorded PBM binding z-score greater than or equal to 0.5? 1.0

Has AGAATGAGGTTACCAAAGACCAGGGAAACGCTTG a recorded PBM binding z-score greater than or equal to 0.5? 1.0

Has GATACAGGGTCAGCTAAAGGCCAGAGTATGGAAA a recorded PBM binding z-score greater than or equal to 0.5? 1.0

Has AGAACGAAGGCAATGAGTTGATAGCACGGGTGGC a recorded PBM binding z-score greater than or equal to 0.5? 0.0

Has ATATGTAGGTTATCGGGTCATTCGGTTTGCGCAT a recorded PBM binding z-score greater than or equal to 0.5? 1.0

Has CAGCCTAGGCCAGGGCCAGTATAGGAGGAACGTT a recorded PBM binding z-score greater than or equal to 0.5? 0.0

Has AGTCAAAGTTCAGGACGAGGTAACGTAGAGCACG a recorded PBM binding z-score greater than or equal to 0.5? 1.0

Has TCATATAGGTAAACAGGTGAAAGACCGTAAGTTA a recorded PBM binding z-score greater than or equal to 0.5? 1.0

Has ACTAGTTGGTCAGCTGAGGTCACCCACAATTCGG a recorded PBM binding z-score greater than or equal to 0.5? 1.0

Has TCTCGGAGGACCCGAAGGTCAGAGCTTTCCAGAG a recorded PBM binding z-score greater than or equal to 0.5? 0.0
